Each recorded value in this set is attributed to the supplement of paper PMC10567573.

Here, each record is paired with measured protein stability index data.
B1: CCDC6 (parent)
chain: ASVTIQARAEQEEEFISNTLFKKI

Variants of: B1
Test Protocol: protein stability index of a GFP-peptide fusion (GPS, HEK-293T) (PSI 1-6); higher = more stable;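 note: lentivirally expressed fusions sorted by FACS into six bins by GFP to DsRed ratio, PSI derived from sequencing read proportions per bin multiplied by bin number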
Experimental Context: c terminus: a fixed tail appended
Just the number, please, no unit after it.

Worked cases, answers included:
Please fill in: protein stability index reported for `T19L` = 2.82

Please fill in: protein stability index reported for `K22C` = 2.17

Please fill in: protein stability index reported for `A9N` = 3.63

Please fill in: protein stability index reported for `A9E` = 4.16

Please fill in: protein stability index reported for `E13A` = 2.8

Please fill in: protein stability index reported for `E12L` = 2.07

Please fill in: protein stability index reported for `K23F` = 2.01

Please fill in: protein stability index reported for `T19V` = 3.21

More entries:
Please fill in: protein stability index reported for `K23N` = 3.37
